- Test system: Staphylococcus aureus CIP 53154
- measurement.notes: Percentage of bactericidal active principle, second method (5 min contact), S. aureus
- Assay type: cell-based
- run.conditions: Simple: without interfering substances, destruction of 99.99%, * activity limited to the zone indicated
Where a name gives a salt, the structure may show the parent alone.
recorded.endpoint: Bactericidal activity, results in percentage of active principle, S. aureus

Go through the list and state Bactericidal activity, results in percentage of active principle, S. aureus for each entry.
1. CCCCCCCCCCCC(=O)NCCCN1CCC(Cc2ccccc2)CC1
2. CCCCCCCCCCCC(=O)NCCN1CCC(Cc2ccccc2)CC1.Cl
3. CCCCCCCCCCCC(=O)NCCCN(C)Cc1ccccc1 [SR 45583 A, hydrochloride]

1: 0.005 percentage of active principle; 2: < 0.01 percentage of active principle; 3: 0.05 percentage of active principle
